Below, each of the binders is paired with its reported Kd value.
- measurement-target: CV S-protein construct 6 trimer TP31001F (SARS-CoV-2, UniProt P0DTC2 14-1208)
- assay-method-text: SPR

binder	readout-unit	Kd
variant 6-58 (Fc fusion) VHH: EVQLVESGGGLVQPGGSLRLSCAASGRAVSTYAMGWFRQAPGKEREFVAAISGSENVTSYADSVKGRFTISADNSKNTAYLQMNSLKPEDTAVYYCLSVTGDTEDYGVFDTWGQGTLVTVSS	nM	1
variant 5-60 (Fc fusion) VHH: EVQLVESGGGLVQPGGSLRLSCAASGRSFSSHRMGWFRQAPGKEREFVAAIMWSGSHRNYADSVKGRFTISADNSKNTAYLQMNSLKPEDTAVYYCAAIAYEEGVYRWDWGQGTLVTVSS	nM	0.8
variant 5-28 (Fc fusion) VHH: EVQLVESGGGLVQPGGSLRLSCAASGGTFSVFAMGWFRQVPGKERELVAEITAGGSTYYADSVKGRFTISADNSKNTAYLQMNSLKPEDTAVYYCAVDGPFGWGQGTLVTVSS	nM	1
variant 6-97 (Fc fusion) VHH: EVQLVESGGGLVQPGGSLRLSCAASGFTFSSLAMGWFRQAPGKEREFVAAITWSGDITNYADSVKGRFTITADNSKNTAYLQMNSLKPEDTAVYYCLRLSSSGFDHWGQGTLVTVSS	nM	57.9
variant 5-20 (Fc fusion, VHH-Fc) VHH: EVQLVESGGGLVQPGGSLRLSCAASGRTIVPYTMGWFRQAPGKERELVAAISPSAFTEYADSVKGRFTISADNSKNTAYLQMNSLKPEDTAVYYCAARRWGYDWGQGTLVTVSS	nM	1.1
variant 6-46 (Fc fusion) VHH: EVQLVESGGGLVQPGGSLRLSCAASGLTFSAMGWFRQAPGKEREFVALIRRDGSTIYADSVKGRFTISADNSKNTAYLQMNSLKPEDTAVYYCAALGILFGYDAFDIWGQGTLVTVSS	nM	1.9
variant 6-108 (Fc fusion) VHH: EVQLVESGGGLVQPGGSLRLSCAASGGTFGSYGMGWFRQAPGKEREFVAAIRWSGGITYYADSVKGRFTISADNSKNTAYLQMNSLKPEDTAVYYCARERYWNPLPYYYYGMDVWGQGTLVTVSS	nM	0.3
variant 6-14 (Fc fusion) VHH: EVQLVESGGGLVQPGGSLRLSCAASGITFRFKAMGWFRQAPGKEREFVAAVSWDGRNTYYADSVKGRFTISADNSKNTAYLQMNSLKPEDTAVYYCASDYYYMDVWGQGTLVTVSS	nM	466
